Exercise: for every item that follows, state its recorded AC50.
target: hPanK3 (Homo sapiens, UniProt Q9H999); test: Modulation of human PanK (hPanK3); assay type: biochemical; conditions: Table 2; activation
Sequence (Q9H999 whole entry): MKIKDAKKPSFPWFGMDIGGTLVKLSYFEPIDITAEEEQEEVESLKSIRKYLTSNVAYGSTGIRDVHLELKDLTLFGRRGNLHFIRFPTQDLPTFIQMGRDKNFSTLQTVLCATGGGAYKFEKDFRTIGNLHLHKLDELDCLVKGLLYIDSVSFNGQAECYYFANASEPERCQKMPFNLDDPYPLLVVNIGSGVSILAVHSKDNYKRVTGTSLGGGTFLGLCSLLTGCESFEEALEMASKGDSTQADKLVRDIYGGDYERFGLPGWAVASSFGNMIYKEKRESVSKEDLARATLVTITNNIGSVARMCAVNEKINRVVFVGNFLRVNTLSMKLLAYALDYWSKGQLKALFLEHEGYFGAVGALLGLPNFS
Give bare numbers, in nM.

>>> result("CC(C)(C)c1ccc(CNc2nc3[nH]c(CN4CCOCC4)cc(=O)n3n2)cc1 [Compound B6]")
58
>>> result("CN(C)c1cc(CN2CCOCC2)nc2nc(NCc3ccc(C(C)(C)C)cc3)nn12 [Compound B7]")
76
>>> result("CC(C)(C)c1ccc(CNc2nc3[nH]c(CN4CCCCC4)cc(=O)n3n2)cc1 [Compound B9]")
270

Then this compound:
Query: # get_value(readout='AC50', item= CC(C)c1ccc(CNc2nc3[nH]c(CN4CCCC4)cc(=O)n3n2)cc1 [Compound B4] )
Reply: 32

###

target: A. fumigatus enzyme (AfPanK) (Aspergillus fumigatus, UniProt Q4WWV3); assay: Inhibition of A. fumigatus pantothenate kinase (AfPanK); type: biochemical; conditions: Table 1; read-out: A. fum. IC50
Sequence (Q4WWV3 entry or part of it): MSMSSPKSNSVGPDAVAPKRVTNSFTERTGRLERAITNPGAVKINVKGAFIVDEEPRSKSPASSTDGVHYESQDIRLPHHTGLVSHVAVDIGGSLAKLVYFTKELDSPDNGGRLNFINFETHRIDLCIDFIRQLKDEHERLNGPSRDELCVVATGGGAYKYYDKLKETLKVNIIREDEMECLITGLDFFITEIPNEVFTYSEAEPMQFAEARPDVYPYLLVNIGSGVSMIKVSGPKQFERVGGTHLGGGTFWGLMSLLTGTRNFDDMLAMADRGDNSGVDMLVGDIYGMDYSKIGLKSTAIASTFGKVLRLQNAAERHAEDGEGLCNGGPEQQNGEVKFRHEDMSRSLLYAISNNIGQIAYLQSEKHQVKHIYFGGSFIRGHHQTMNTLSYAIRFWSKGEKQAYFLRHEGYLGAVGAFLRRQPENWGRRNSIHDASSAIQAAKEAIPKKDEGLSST
pIC50: −log10 of the molar value.
readout_type: pIC50

Completed entries (count: 5):
>>> result("COC(=O)CNC(=O)c1cc(C)nc2nc(NCc3ccc(C(C)(C)C)cc3)nn12")
"< 4.30"
>>> result("Cc1cc(C(=O)NCCO)n2nc(NCc3ccc(C(C)(C)C)cc3)nc2n1")
"< 4.30"
>>> result("Cc1cc(C(=O)NCc2cccnc2)n2nc(NCc3ccc(C(C)(C)C)cc3)nc2n1")
"~4.00"
>>> result("CC(C)(C)c1ccc(CNc2nc3nc(CN4CCOCC4)cc(Cl)n3n2)cc1")
"~4.00"
>>> result("Cc1cc(C(=O)Nc2ccccn2)n2nc(NCc3ccc(C(C)(C)C)cc3)nc2n1")
"< 4.30"

Then this compound:
Query: # get_value(readout='pIC50', item= Cc1cc(C(=O)NCC(=O)O)n2nc(NCc3ccc(C(C)(C)C)cc3)nc2n1 )
Reply: ~4.00
